Reference for the values: patent US20160297892A1

- target-of-assay: T1, Gla-domain deleted recombinant human Protein S (human, UniProt P07225 114-676)
- T1 construct: also called hPS-dGla; desGla human Protein S
- T1 sequence: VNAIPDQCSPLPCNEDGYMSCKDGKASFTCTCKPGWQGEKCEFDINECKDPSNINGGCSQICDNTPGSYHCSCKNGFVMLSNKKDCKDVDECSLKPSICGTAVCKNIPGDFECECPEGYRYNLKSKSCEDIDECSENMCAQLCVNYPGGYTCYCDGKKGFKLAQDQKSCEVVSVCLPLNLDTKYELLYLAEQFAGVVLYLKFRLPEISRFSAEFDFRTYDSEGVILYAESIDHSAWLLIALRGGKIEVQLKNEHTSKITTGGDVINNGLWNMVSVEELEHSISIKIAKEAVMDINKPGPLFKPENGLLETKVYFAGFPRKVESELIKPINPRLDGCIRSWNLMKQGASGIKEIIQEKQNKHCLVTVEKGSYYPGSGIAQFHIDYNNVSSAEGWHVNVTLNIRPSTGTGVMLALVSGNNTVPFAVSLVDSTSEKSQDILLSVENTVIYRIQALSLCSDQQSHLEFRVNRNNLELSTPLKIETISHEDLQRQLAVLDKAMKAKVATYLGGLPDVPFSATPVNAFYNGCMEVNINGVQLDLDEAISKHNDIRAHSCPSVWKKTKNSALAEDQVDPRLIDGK
- assay-summary: ELISA, calcium-free TBS;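 further: binding of mouse antibodies detected by ELISA with an HRP-conjugated goat anti-mouse IgG secondary and TMB substrate development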
reported-metric: binding result

binder: M-hProtS-6F128A2 monoclonal antibody (antibody, mouse IgG1, V domains shown, Tested as antibody purified from hybridoma supernatant; mouse IgG1, kappa) VL: SIVMTQTPKFLLVSAGDRVTITCKASQSVSNDVAWYQQKPGQSPKLLIYYASNRYTGVPDRFTGSGYGTDFTFTISTVQAEDLAVYFCQQDYSSPYTFGGGTKLEIKR V domain: QVQLQQPGAELVRPGASVKLSCKASGYTFTSYWINWVKQRPEQGLEWIGRIDPYDSETHYNQKFKDKAILTVDKSSSTAYMQLSSLTSEDSAVYYCARWGGSGYAMDYWGQGTSATVSS
result: binds
//
binder: M-hProtS-2F382A1 monoclonal antibody (antibody, mouse IgG1, V domains shown, Purified from hybridoma supernatant; mouse IgG1, kappa) VH: EVKLEESGGGLVQPGGSMKLSCAASGFTFSDAWMGWVRQSPEKGLEWVAEIRGKANNHATYYSESVKGRFTISRDDSKSSVYLQMNSLRAEDTGIFYCCLITAFLFDYWGQGTTLTVSS VL: QIVLTQSPAIMSASPGEKVTMTCSGRSSENYMYWYQQKPGSPPRLWIYDTSNLVSGVPARFSGSRSGTSYSLTISSMEAEDAATYYCQQFNGYPYTFGGGTKLEIRR
result: binds
